# tgt: human CD33 T299A (human, UniProt P20138 18-364)
# Sequence (P20138 18-364 T299A limits assumed): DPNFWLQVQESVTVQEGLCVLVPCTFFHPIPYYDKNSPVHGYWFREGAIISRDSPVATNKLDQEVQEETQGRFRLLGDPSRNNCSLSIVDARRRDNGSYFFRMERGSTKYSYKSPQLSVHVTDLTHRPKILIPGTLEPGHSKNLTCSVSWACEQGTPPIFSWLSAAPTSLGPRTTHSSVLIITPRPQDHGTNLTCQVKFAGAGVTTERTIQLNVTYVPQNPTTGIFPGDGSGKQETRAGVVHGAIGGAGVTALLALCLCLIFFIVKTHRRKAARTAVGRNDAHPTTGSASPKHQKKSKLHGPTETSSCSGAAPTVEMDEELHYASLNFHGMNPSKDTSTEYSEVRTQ
# experiment: alanine scan, flow cytometry, HEK293-T;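 also: antibody binding to each alanine-substituted CD33 mutant expressed transiently in HEK293-T, read as fluorescence minus background, mean of duplicates, relative to wild-type CD33 set as 100%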
Please respond with reported Mean % WT Binding for every item in the list.
API: value field is a number in % WT binding; no unit string.

// Mean % WT Binding lookup, binder = Refmab #1 (antibody, V domains shown, The alanine scan used IgG or Fab; also called hP67.6) VH: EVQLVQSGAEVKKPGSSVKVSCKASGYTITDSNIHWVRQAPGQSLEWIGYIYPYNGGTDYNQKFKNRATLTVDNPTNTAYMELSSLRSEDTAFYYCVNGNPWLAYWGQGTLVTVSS VL: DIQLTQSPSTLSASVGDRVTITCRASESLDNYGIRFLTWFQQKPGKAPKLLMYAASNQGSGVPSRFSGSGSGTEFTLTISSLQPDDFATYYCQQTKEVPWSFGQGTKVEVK , result: 90.3

// Mean % WT Binding lookup, binder = Refmab #3 (antibody, V domains shown, The alanine scan used IgG or Fab) VH: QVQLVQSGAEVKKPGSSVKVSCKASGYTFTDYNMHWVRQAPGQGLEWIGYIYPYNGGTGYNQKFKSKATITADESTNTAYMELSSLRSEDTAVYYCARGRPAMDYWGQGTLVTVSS VL: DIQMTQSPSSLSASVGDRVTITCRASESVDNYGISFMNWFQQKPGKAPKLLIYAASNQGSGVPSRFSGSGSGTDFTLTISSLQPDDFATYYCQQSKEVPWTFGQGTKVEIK , result: 85.6

// Mean % WT Binding lookup, binder = Refmab #4 (antibody, V domains shown, The alanine scan used IgG or Fab) VH: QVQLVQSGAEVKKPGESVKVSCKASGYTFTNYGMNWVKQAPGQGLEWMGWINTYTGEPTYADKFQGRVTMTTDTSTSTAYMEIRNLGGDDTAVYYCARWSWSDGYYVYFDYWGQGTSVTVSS VL: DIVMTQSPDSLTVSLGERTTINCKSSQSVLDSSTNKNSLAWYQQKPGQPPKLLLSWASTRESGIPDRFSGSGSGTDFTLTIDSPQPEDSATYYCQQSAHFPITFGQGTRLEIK , result: 92.9

// Mean % WT Binding lookup, binder = Refmab #2 (antibody, V domains shown, The alanine scan used IgG or Fab) VH: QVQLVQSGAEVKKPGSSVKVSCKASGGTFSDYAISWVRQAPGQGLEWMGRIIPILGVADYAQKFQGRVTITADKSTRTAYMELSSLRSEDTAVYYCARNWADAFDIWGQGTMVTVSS VL: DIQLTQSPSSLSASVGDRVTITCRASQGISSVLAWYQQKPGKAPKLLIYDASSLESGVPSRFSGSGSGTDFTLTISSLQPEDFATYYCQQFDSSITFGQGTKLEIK , result: 96.3
